Quick reference for Population Mitotic Cells (%) among some compounds
tested on: HEK-293T; assay: Multiplex assay against HEK293T; format: toxicity, cell-based; details: human, 48 h, 1 µM, compound concentration 1 uM, replicate 1
# answer = value followed by unit

## Input Bench note: what Population Mitotic Cells (%) did CC(C)NCC(O)COc1ccc(CCOCC2CC2)cc1.Cl (stereo not drawn) [BETAXOLOL HYDROCHLORIDE] show?
## Output 71%

## Input Bench note: what Population Mitotic Cells (%) did Cn1cc(-c2[nH]c3cc(NC(=O)[C@H](N)C4CCCCC4)cc4c3c2C=NNC4=O)cn1 show?
## Output 63%

## Input Bench note: what Population Mitotic Cells (%) did CC[C@H](C)C(=O)O[C@H]1C[C@@H](C)C=C2C=C[C@H](C)[C@H](CC[C@@H]3C[C@@H](O)CC(=O)O3)[C@H]21 show?
## Output 50%

## Input Bench note: what Population Mitotic Cells (%) did CN(C)C(=O)N[C@H]1CC[C@H](CCN2CCN(c3cccc(Cl)c3Cl)CC2)CC1.Cl [CARIPRAZINE HYDROCHLORIDE] show?
## Output 70%

## Input Bench note: what Population Mitotic Cells (%) did Cc1csc2c(N[C@@H](C)CN3CCN(S(=O)(=O)c4ccc(Cl)c(Cl)c4)CC3)ncnc12 show?
## Output 40%

## Input Bench note: what Population Mitotic Cells (%) did CN(C)C(=O)/C(C#N)=C/c1ccc(-c2nc3cnc4[nH]ccc4c3n2C2CCCCC2)o1 show?
## Output 54%

## Input Bench note: what Population Mitotic Cells (%) did COc1cccc([C@@H](C)NCCCc2ccccc2Cl)c1.Cl [TECALCET HYDROCHLORIDE] show?
## Output 79%

## Input Bench note: what Population Mitotic Cells (%) did CN1CCCC(n2nc(Cc3ccc(Cl)cc3)c3ccccc3c2=O)CC1.Cl (stereo not drawn) [AZELASTINE HYDROCHLORIDE] show?
## Output 50%

----------
tested on: U2OS; experiment: Incucyte cell viability with U2OS; format: toxicity, cell-based; settings: human, 18 h, 10 µM, compound concentration 10 uM, replicate number 2, timepoint 18 hours; also: filed as whole numbers so only -1 and 0 and 1 occur
Quick reference for Growth Rate among some compounds
Respond with the number and no other words.

## Input Bench note: what Growth Rate did Cc1sc2c(c1C)C(c1ccc(Cl)cc1)=N[C@@H](CC(=O)OC(C)(C)C)c1nnc(C)n1-2 show?
## Output 1

## Input Bench note: what Growth Rate did CC1=C(C#N)C(c2ccc3[nH]nc(C)c3c2)C(C#N)=C(C)N1 show?
## Output 1

## Input Bench note: what Growth Rate did CCN(CC)CCCCNc1ncc2cc(-c3cc(OC)cc(OC)c3)c(NC(=O)NC(C)(C)C)nc2n1 show?
## Output 1

## Input Bench note: what Growth Rate did CN1CCN(CCOc2cc(OC3CCOCC3)c3c(Nc4c(Cl)ccc5c4OCO5)ncnc3c2)CC1 show?
## Output 1

Now look at this entry.
## Input Bench note: what Growth Rate did COc1cc(-c2cn([C@H]3CCc4c(F)cccc4N(CC(F)(F)F)C3=O)nn2)ccc1-n1cnc(C)c1 show?
## Output 1

----------
system: HEK-293T; experiment: Multiplex assay against HEK293T; type: toxicity, cell-based; conditions: human, 24 h, 1 µM, compound concentration 1 uM, replicate 2
Please map values of Population Mitochondria Different-Phenotype (%) to classes as shown: low = under 30%, moderate = from 30% up to 60%, high = 60% and over

Worked examples follow.
## Input Pick a category. Item: O=C1NCN(c2ccccc2)C12CCN(CCCOc1ccc(F)cc1)CC2 [SPIRAMIDE]
## Output low

## Input Pick a category. Item: Cc1csc2c(N[C@@H](C)CN3CCN(S(=O)(=O)c4ccc(Cl)c(Cl)c4)CC3)ncnc12
## Output moderate

## Input Pick a category. Item: Cc1nc(-c2ccc(-c3ccc(C(=O)N4CCc5cc6c(cc54)C4(CCN(C)CC4)CO6)cc3)c(C)c2)no1
## Output high

## Input Pick a category. Item: CN1CCN(CCOc2cc(OC3CCOCC3)c3c(Nc4c(Cl)ccc5c4OCO5)ncnc3c2)CC1
## Output moderate

## Input Pick a category. Item: CN1CCN(c2ccc(OC(F)(F)F)c(Nc3ncc4c(n3)-c3c(c(C(N)=O)nn3CCO)CC4)c2)CC1
## Output high

## Input Pick a category. Item: c1cn2cc(-c3ccc4cn[nH]c4c3)nc(Nc3ccc(N4CCOCC4)cc3)c2n1
## Output moderate

Next:
## Input Pick a category. Item: CC(C)NCC(O)COc1ccc(CCOCC2CC2)cc1.Cl (configuration not stated) [BETAXOLOL HYDROCHLORIDE]
## Output low

## Input Pick a category. Item: CN1CCCC(n2nc(Cc3ccc(Cl)cc3)c3ccccc3c2=O)CC1.Cl (configuration not stated) [AZELASTINE HYDROCHLORIDE]
## Output high

## Input Pick a category. Item: CC(C)(O)CNc1ncc(-c2ccnc(Nc3ccnc(Cl)c3)n2)c(CC2CC2)n1
## Output low

## Input Pick a category. Item: Cc1c(-c2ccc(O)cc2)n(Cc2ccc(OCCN3CCCCCC3)cc2)c2ccc(O)cc12
## Output moderate

## Input Pick a category. Item: Cn1cc(-c2[nH]c3cc(NC(=O)[C@H](N)C4CCCCC4)cc4c3c2C=NNC4=O)cn1
## Output low
